- tested-system: Cynomolgus monkey CD1a expressed on HEK-293 cells (Cynomolgus monkey, UniProt A0A2K5VQ68 17-326)
- Sequence (A0A2K5VQ68 entry or part of it): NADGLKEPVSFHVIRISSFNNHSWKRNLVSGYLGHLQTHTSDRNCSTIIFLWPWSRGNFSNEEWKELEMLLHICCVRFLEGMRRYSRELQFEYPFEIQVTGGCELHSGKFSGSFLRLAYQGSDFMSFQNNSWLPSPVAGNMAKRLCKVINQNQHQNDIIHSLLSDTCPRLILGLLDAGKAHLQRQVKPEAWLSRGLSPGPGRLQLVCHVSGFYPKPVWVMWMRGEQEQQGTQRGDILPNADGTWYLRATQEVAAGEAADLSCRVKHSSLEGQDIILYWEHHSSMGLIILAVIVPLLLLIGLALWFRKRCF
- method-summary: flow cytometry, HEK-293 cells, 0.01 µg/ml antibody
parameter-measured: Fluorescence Intensity Geomean (normalized to background)

Enquiry: Return reported Fluorescence Intensity Geomean (normalized to background); argument: 116 (VR12117) (antibody, V domains shown, also called OX116) VH: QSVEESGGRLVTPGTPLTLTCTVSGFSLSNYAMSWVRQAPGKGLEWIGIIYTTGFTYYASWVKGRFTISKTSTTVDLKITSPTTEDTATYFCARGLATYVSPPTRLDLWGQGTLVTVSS VL: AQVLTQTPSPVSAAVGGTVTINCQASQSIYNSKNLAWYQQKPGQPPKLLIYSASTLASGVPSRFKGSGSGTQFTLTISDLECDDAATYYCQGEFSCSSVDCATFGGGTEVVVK
Return: 1 fold over background
